Target: T1, GFP-9S library array, motif 4 ND N98R;D124P (synthetic construct, N98R;D124P)
T1 chain: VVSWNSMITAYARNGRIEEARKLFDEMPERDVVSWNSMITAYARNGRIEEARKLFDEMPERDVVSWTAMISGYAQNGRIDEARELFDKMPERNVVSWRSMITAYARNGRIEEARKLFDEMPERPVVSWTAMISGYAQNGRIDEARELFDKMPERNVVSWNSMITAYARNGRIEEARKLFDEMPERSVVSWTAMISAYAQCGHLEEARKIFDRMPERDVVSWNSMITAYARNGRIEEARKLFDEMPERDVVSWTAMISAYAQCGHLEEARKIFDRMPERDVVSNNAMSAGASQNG
Test: high-throughput RNA pulldown from lysate on Ni-NTA beads; HRP: 50 mM Tris pH 8, 150 mM NaCl, 1 mM beta-mercaptoethanol, 50 ug/ml BSA, 3 ug/ml yeast RNA, 0.5% heparin; ITC and FP: Tris pH 8, 200 mM KCl, 5% glycerol; MST: 50 mM Tris pH 8, 200 mM NaCl, 1 mM DTT, BSA, heparin, 0.05% Tween 20
Details: tags: N-terminal His-eGFP; label: 5' IRDye 800CW
measure: pKd
Hey, just a heads up that pKd is the negative log base 10 of the concentration in molar.

{"binder": "AUUAUACGUGA (ssRNA) [IR-rpoA-U]", "measure": "pKd", "observed-value": 6.79}

# evaluate next
Report pKd for AUUAAACGUGA (ssRNA) [IR-rpoA-A] 6.47
